src = patent US20230187019A1

Test system: AK4.4
Assay: Cell viability assay (MTT) on AK4.4
Settings: Mus musculus, read-out: IC50, Tc, tioconazole alone, AK4.4 (Table 11)
Readout type: pIC50
Note on units: pIC50 is unitless, being -log10 of a concentration expressed in mol/L.

Lab note: Clc1ccc(C(Cn2ccnc2)OCc2ccsc2Cl)c(Cl)c1 (stereo not shown) gave pIC50 of 4.90

---

Test system: shCtrl/HCT116
Experiment: Cell viability assay on shCtrl/HCT116 (control strain)
Type: cell-based, human
Conditions: remaining viability, 20 μM drug, C strain
Response field label takes 1 (yes) when shCtrl/HCT116 Cell Viability is strictly below 30% and 0 (no) in all other cases.

Some solved entries appear below for comparison.
Compound	Label value
CO[C@H]1C[C@@H]2CC[C@@H](C)[C@@](O)(O2)C(=O)C(=O)N2CCCC[C@H]2C(=O)O[C@H]([C@H](C)C[C@@H]2CC[C@@H](OC(=O)C(C)(CO)CO)[C@H](OC)C2)CC(=O)[C@H](C)/C=C(\C)[C@@H](O)[C@@H](OC)C(=O)[C@H](C)C[C@H](C)/C=C/C=C/C=C/1C [Temsirolimus]	0 (no)
Cc1cc(-c2ccc(/N=N/c3ccc4c(S(=O)(=O)O)cc(S(=O)(=O)O)c(N)c4c3O)c(C)c2)ccc1/N=N/c1ccc2c(S(=O)(=O)O)cc(S(=O)(=O)O)c(N)c2c1O [Evans Blue]	0 (no)
C#C[C@]1(O)CC[C@H]2[C@@H]3CCc4cc(O)ccc4[C@H]3CC[C@@]21C [Ethynyl Estradiol]	0 (no)
Cc1ccc(C(=O)Nc2ccc(CN3CCN(C)CC3)c(C(F)(F)F)c2)cc1C#Cc1cnc2cccnn12 [Ponatinib]	1 (yes)

Query: Dear colleague, could you confirm whether shCtrl/HCT116 Cell Viability of CC[C@@]1(O)C[C@H](O[C@H]2C[C@H](N(C)C)[C@H](O[C@H]3C[C@H](O)[C@H](O[C@H]4CCC(=O)[C@H](C)O4)[C@H](C)O3)[C@H](C)O2)c2c(cc3c(c2O)C(=O)c2c(O)cccc2C3=O)[C@H]1C(=O)OC [Aclacinomycin A] falls below 30%? Thanks.
Reply: 1 (yes)
